Cited source for all entries: ChEMBL document CHEMBL4513148

- System: Klebsiella pneumoniae
- Test parameters: Concentration 32 ug.mL-1; ASSAY_TEST Inhibition of Bacterial Growth; detection method Absorption (OD600); MEDIA CAMHB; plate type 384well; NBS; CORNING #3640; time 18 hr
- Description: Antibacterial activity against Klebsiella pneumoniae MDR ATCC 70063 (CO-ADD:GN_003); MIC in CAMBH media using NBS plates, by OD(600)
Results with a measured potency or affinity are listed apart.
Readout kind: Inhibition (%)
Response body: numeric value in %, unit text excluded.

Solved entries (count: 5):
In [3]: df
Out[3]:
                                   compound  unit_label  value
0    CCCCCCCNC(=S)CCNC(=O)[C@H](O)C(C)(C)CO           %  15.93
1  CC(C)(CO)[C@@H](O)C(=O)N/C=C/C(=O)NCCc1ccccc1           %  27.58
2  CC(C)(CO)[C@@H](O)C(=O)NCCC(=S)NCCc1ccccc1           %  23.06
3  CC(C)(CO)[C@H](O)C(=O)NCc1cn(C[C@H]2O[C@@H](n3ccc(N)nc3=O)[C@H](O)[C@@H]2O)nn1           %   7.03
4  CC(C)(CO)C(O)C(=O)NCCCOP(=O)(O)OCC1OC(n2ccc(N)nc2=O)C(O)C1O (stereo not drawn)           %  14.41

Return reported Inhibition; argument: CCCCCCNNC(=O)CCNC(=O)[C@H](O)C(C)(C)CO
13.13
